- System: HIV in the HTLV-1 transformed cell line MT-4
- Procedure Summary: organism not typed
- Format: cell-based
- Test Settings: MT4, 96 h, MT-4 cells; luciferase/cell titer glo readout after 96 hours; 10 point dose response
pIC50: −log10 of the molar value.
Each item that follows carries a reported pIC50.
Endpoint Label: pIC50

compound="Cc1c(-c2c(C)c3c(c(C)c2[C@H](OC(C)(C)C)C(=O)O)CN(C(=O)N2CCOC[C@@H]2C)C3)cc(F)c2c1CCCO2 (atropisomer, axis not shown; (M)) [Example 209]" endpoint_label=pIC50 obs_value=7.64
compound="Cc1ccc(-c2c(C)c3c(c(C)c2[C@H](OC(C)(C)C)C(=O)O)CN(Cc2cccc4ccccc24)C3)cc1 [Example 13]" endpoint_label=pIC50 obs_value=7.36
compound="COc1cccc(C(=O)N2Cc3c(C)c(-c4ccc(C)cc4)c([C@H](OC(C)(C)C)C(=O)O)c(C)c3C2)c1F [Example 253]" endpoint_label=pIC50 obs_value=7.92
